System: luciferase reporter under the control of a methylated CMV promoter in leukemia KG-1 cells
Assay: CMV-luc reexpression (luciferase reporter) in KG-1 cells
Assay type: cell-based, human
Conditions: 0.32 μM, 24 hour incubation, fold induction vs DMSO, mean ± standard error
Reported Reactivation fold of luciferase gene reporter in KG-1 CMV-Luc values are given for each entry in this list.
Give just the numeric value; fold need not be written.

Example entries and their recorded answers appear below.
| Molecular String | Endpoint Result |
| --- | --- |
| COc1ccc2cc1Oc1ccc(cc1)C[C@H]1c3c(cc(OC)c4c3Oc3cc5c(cc3O4)CCN(C)[C@H]5C2)CCN1C | 2.4 |
| COc1cc2c3c4c1Oc1cc5c(cc1O4)[C@H](Cc1ccc(O)c(c1)Oc1ccc(cc1)C[C@@H]3NCC2)N(C)CC5 | 2.3 |
| COc1ccc2cc1Oc1ccc(cc1)C[C@@H]1NCCc3cc(OC)c4c(c31)Oc1cc3c(cc1O4)CCN[C@H]3C2 | 1.7 |

With those in mind, consider the next molecule.
Query block: Consider the molecule COc1ccc2cc1Oc1ccc(cc1)C[C@@H]1NCCc3cc(OC)c4c(c31)Oc1cc3c(cc1O4)CCN(C)[C@H]3C2 . State its measured Reactivation fold of luciferase gene reporter in KG-1 CMV-Luc.
Result block: 1.9

----------
System: luciferase reporter under the control of a methylated CMV promoter in leukemia KG-1 cells
Assay: CMV-luc reexpression (luciferase reporter) in KG-1 cells
Type: cell-based, human
Conditions: 0.5 μM, 24 hour incubation, fold induction vs DMSO, mean ± standard error
Measure Name: Reactivation fold of luciferase gene reporter in KG-1 CMV-Luc (fold)
Give just the numeric value; fold need not be written.

| Molecular String | Units Text | Endpoint Result |
| --- | --- | --- |
| COc1cc2c3c4c1Oc1cc5c(cc1O4)[C@H](Cc1ccc(O)c(c1)Oc1ccc(cc1)C[C@@H]3NCC2)N(C)CC5 | fold | 2.1 |
| COc1ccc2cc1Oc1ccc(cc1)C[C@H]1c3c(cc(OC)c4c3Oc3cc5c(cc3O4)CCN(C)[C@H]5C2)CCN1C | fold | 2.8 |
| COc1ccc2cc1Oc1ccc(cc1)C[C@@H]1NCCc3cc(OC)c4c(c31)Oc1cc3c(cc1O4)CCN(C)[C@H]3C2 | fold | 1.6 |

With those in mind, consider the next compound.
Query block: Consider the compound COc1ccc2cc1Oc1ccc(cc1)C[C@@H]1NCCc3cc(OC)c4c(c31)Oc1cc3c(cc1O4)CCN[C@H]3C2 . State its measured Reactivation fold of luciferase gene reporter in KG-1 CMV-Luc.
Result block: 1.9

----------
Molecular target: human C-terminal DNMT3A (a.a. 623-908) (Homo sapiens, UniProt Q9Y6K1)
Construct: The human C-terminal DNMT3A (a.a. 623-908); made in house
Sequence (Q9Y6K1 627-912): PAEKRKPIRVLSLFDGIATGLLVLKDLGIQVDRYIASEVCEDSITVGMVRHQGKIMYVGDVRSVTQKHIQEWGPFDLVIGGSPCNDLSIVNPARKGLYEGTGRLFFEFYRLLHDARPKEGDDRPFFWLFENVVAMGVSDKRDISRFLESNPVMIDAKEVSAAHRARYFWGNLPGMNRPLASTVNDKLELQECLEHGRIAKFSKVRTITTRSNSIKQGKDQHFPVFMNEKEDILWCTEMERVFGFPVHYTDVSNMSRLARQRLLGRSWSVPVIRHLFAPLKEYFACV
Assay: hDNMT3A restriction-based fluorescence assay
Type: biochemical
Conditions: 32 μM; read-out: hDNMT 3A inhibition, Inhibition (%)
Measure Name: inhibition at 32 µM (%)
Give just the numeric value; % need not be written.

| Molecule | inhibition at 32 µM (%) |
| --- | --- |
| COc1cc2c3c4c1Oc1cc5c(cc1O4)[C@H](Cc1ccc(O)c(c1)Oc1ccc(cc1)C[C@@H]3NCC2)N(C)CC5 [Compound 5, 2′-Norcocsuline] | 88 |

Query block: Consider the molecule COc1cc2c3c4c1Oc1cc5c(cc1O4)[C@H](Cc1ccc(O)c(c1)Oc1ccc(cc1)C[C@@H]3N(C)CC2)N(C)CC5 [Compound 4, Cocsuline] . State its measured inhibition at 32 µM.
Result block: 66

Query block: Consider the molecule COc1ccc2cc1Oc1ccc(cc1)C[C@@H]1NCCc3cc(OC)c4c(c31)Oc1cc3c(cc1O4)CCN[C@H]3C2 [Compound 7, Nortrilobine] . State its measured inhibition at 32 µM.
Result block: 94
